- ASSAY TARGET: PI3K (Homo sapiens, UniProt P48736)
- Construct: PI3 Kinase γ IC50; other: PI3 Kinase γ; other: PI3 Kinase γ isoform, fluorescence polarization
- Sequence (P48736 whole entry, canonical isoform): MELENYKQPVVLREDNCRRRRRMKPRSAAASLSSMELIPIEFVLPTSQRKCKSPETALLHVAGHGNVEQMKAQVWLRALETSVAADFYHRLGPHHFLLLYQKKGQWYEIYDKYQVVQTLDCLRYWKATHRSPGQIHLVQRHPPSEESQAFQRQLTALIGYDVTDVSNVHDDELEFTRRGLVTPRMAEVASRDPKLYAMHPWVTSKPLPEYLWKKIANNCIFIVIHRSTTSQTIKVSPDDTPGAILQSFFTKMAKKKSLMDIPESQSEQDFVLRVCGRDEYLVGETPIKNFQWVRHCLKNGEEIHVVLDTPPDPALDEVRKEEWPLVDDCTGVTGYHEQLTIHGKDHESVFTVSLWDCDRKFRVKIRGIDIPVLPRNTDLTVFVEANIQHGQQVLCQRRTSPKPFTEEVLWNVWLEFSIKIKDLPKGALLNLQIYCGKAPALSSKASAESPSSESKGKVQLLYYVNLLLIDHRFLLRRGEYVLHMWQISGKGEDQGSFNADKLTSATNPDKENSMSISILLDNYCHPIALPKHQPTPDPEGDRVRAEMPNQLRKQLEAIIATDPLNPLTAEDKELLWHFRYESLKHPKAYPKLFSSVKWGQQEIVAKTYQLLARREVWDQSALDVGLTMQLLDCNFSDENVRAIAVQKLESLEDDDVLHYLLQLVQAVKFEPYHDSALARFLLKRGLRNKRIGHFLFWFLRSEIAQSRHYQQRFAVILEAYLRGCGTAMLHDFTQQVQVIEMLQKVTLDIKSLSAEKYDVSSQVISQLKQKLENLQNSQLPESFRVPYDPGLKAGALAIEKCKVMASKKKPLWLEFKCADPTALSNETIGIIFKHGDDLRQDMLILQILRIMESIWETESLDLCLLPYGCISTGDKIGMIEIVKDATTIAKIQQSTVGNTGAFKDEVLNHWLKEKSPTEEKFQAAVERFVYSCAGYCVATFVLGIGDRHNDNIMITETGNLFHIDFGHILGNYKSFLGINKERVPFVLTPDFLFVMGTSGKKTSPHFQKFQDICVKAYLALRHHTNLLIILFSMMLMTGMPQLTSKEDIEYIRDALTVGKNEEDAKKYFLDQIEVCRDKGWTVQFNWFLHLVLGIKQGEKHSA
- ASSAY SUMMARY: Fluorescence polarization assay for PI3K
- Type: biochemical
- MEASUREMENT CONTEXT: PI3 Kinase γ; read-out: PI3 Kinase γ IC50
pIC50: −log10 of the molar value.
OBSERVATION TYPE: pIC50

Reference set (2 entries):
Give a short answer stating reported pIC50 for O=C(Nc1ccc(-c2nc(N3CC4CCC(C3)O4)c3cnn(C4CCN(Cc5cccnc5)CC4)c3n2)cc1)OCCO . < 5.00

Give a short answer stating reported pIC50 for O=C(NCCO)Nc1ccc(-c2nc(N3CC4CCC(C3)O4)c3cnn(C4CCC5(CC4)OCCO5)c3n2)cc1 . < 5.00

Please find the next molecule below.
Give a short answer stating reported pIC50 for COC(=O)N1CCC(n2ncc3c(N4CC5CCC(C4)O5)nc(-c4ccc(N)cc4)nc32)CC1 . < 5.00
